Counter-ions that a name gives are not always drawn.
MEASURED PROPERTY: melting point

INSERT INTO measurements (compound, measured_property, test_result) VALUES
  ('Cc1nc(N2CCCCC2)c2[nH]c(-c3ccc(S(C)(=O)=O)cc3)cc2n1.Cl (hydrate or solvate) [Example 142]', 'melting point', '279 to 281 °C'),
  ('Cc1nc(N2CCCCC2)c2oc(-c3ccccc3)cc2n1 (as salt: hydrochloride) (hydrate or solvate)', 'melting point', '> 290 °C');

Enquiry: Query: melting point; subject: Cl.FC(F)(F)c1nc(N2CCCCC2)c2[nH]c(-c3ccccc3)cc2n1 (hydrate or solvate)
Return: 235.1 to 237.5 °C (dec.)

Enquiry: Same question, CCc1nc(N2CCc3ccccc3C2)c2[nH]c(-c3ccccc3)cc2n1 (as salt: hydrochloride) (hydrate or solvate) [Example 202, Hydrochloride Monohydrate] this time
Return: 170 to 171.5 °C
